These measurements were taken from patent US10308639B2.

biological target: PI3Kβ (Homo sapiens); construct: made in house; assay: TR-FRET enzymatic activity assay, PI3Kβ; type: biochemical; conditions: Table 2; TR-FRET, 2x Km ATP, 30 minutes at 25° C.
Sequence (P42338 whole entry): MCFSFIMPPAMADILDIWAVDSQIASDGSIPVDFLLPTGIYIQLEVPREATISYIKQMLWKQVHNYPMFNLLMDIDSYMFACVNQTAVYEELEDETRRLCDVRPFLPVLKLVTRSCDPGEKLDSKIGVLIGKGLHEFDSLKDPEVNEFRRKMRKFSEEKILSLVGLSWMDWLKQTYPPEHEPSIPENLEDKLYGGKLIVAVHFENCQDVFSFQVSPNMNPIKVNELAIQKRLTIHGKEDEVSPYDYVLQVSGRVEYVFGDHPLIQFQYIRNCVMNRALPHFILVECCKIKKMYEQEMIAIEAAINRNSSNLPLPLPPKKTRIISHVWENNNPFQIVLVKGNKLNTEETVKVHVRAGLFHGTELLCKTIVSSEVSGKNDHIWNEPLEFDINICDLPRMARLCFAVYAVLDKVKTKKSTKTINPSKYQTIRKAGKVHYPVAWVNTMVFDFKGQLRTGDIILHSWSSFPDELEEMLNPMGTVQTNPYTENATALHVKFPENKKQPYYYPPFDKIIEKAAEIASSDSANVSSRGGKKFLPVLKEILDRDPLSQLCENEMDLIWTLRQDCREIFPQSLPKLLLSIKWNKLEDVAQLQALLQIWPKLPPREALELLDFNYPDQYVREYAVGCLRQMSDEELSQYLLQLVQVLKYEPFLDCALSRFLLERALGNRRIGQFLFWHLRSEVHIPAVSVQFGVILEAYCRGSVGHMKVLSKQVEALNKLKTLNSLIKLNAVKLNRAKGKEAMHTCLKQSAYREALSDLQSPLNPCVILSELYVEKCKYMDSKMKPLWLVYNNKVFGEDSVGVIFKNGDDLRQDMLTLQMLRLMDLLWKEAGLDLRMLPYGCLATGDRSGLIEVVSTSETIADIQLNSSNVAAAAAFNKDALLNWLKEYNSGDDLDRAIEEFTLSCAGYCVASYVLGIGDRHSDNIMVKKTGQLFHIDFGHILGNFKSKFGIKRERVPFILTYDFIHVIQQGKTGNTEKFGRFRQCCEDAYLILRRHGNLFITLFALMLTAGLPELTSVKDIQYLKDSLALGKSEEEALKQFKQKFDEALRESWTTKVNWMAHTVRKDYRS
Sequence (P27986 whole entry partner): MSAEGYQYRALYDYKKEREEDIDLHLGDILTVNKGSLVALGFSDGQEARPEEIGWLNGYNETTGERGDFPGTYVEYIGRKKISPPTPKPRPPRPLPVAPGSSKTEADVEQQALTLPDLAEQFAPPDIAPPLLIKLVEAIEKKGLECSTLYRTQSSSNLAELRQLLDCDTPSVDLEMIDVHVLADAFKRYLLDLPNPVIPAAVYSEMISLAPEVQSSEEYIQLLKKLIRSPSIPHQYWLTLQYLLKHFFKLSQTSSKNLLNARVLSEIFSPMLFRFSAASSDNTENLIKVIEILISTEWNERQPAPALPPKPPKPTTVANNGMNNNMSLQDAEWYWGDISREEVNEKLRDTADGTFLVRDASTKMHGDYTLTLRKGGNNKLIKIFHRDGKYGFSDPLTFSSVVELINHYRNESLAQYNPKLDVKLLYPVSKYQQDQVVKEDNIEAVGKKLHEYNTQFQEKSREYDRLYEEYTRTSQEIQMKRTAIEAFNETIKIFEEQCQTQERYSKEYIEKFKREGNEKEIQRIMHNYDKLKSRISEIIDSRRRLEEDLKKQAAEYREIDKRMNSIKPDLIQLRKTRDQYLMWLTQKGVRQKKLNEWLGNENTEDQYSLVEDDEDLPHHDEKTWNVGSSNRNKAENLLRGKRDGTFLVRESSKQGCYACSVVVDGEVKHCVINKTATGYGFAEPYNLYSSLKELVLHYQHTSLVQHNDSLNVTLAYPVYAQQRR
pIC50: −log10 of the molar value.

{"columns": ["Line notation", "pIC50"],
 "data": [
  ["CC[C@H](Nc1nc(N)nc(N)c1C#N)c1nc2cccc(Cl)c2c(=O)n1-c1cc[nH]n1", 9.00],
  ["CC[C@H](Nc1nc(Cl)nc2[nH]nc(C)c12)c1nc2c(Cl)ccc(Cl)c2c(=O)n1-c1cc[nH]n1", 5.38],
  ["CC[C@H](Nc1ncnc2scnc12)c1nc2c(C#N)cccc2c(=O)n1-c1cc[nH]n1", 7.70],
  ["C[C@H](Nc1ncnc2ccoc12)c1nc2cccc(Cl)c2c(=O)n1-c1cc[nH]n1", 7.70],
  ["C[C@H](Nc1nc(N)nc(N)c1Cl)c1nc2c(Cl)ccc(Cl)c2c(=O)n1-c1cc[nH]n1", 7.89]
]}

* * *

molecular target: PI3Kγ (Homo sapiens); construct: made in house; assay: TR-FRET enzymatic activity assay, PI3Kγ; format: biochemical; settings: Table 2a; same assay; read-out: PI3Kγ IC50
Sequence (P48736 whole entry): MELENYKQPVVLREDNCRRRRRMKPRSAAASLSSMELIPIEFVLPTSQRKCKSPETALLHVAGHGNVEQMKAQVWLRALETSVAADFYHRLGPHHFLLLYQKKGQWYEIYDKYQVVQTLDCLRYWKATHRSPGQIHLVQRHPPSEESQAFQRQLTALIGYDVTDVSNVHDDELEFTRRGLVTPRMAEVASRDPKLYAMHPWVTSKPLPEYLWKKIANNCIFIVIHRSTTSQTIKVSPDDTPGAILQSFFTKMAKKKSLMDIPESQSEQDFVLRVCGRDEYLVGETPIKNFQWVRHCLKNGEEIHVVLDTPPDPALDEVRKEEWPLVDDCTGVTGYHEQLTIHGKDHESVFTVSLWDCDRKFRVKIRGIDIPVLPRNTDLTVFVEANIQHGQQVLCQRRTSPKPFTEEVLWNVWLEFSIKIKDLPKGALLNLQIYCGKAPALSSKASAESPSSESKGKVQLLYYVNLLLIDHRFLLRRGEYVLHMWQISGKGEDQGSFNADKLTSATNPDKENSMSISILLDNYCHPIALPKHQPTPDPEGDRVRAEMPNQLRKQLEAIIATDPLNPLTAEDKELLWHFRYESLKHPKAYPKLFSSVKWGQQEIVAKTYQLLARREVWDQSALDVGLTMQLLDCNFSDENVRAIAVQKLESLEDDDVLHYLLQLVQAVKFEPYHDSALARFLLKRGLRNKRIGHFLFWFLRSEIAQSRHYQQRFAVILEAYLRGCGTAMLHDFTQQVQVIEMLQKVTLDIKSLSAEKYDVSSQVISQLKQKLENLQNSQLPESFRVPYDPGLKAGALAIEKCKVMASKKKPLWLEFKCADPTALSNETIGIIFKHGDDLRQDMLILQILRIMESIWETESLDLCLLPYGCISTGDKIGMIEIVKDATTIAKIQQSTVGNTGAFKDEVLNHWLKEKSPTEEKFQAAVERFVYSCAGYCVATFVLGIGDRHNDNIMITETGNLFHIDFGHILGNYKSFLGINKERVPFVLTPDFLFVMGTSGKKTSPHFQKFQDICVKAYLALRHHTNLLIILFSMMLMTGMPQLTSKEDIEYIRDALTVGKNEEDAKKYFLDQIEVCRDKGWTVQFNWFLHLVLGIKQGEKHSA
pIC50: −log10 of the molar value.

{"columns": ["Line notation", "Measured on", "Comparative sign", "pIC50"],
 "data": [
  ["Nc1nc(N)c(Cl)c(N[C@H](c2nc3cccc(C(F)F)c3c(=O)n2-c2cc[nH]n2)C2CCC2)n1", "PI3Kγ (Homo sapiens)", "<", 5.00],
  ["Nc1nc(N)c(Cl)c(N[C@H](c2nc3c(Cl)cc(F)cc3c(=O)n2-c2cc[nH]n2)C2CCC2)n1", "PI3Kγ (Homo sapiens)", "<", 5.00],
  ["C[C@@H](Nc1nc(N)nc(N)c1Cl)c1nc2cccc(C(F)F)c2c(=O)n1-c1cc[nH]n1", "PI3Kγ (Homo sapiens)", "<", 5.00],
  ["C[C@H](Nc1nc(N)nc(C(F)F)c1Cl)c1nc2c(F)c(F)ccc2c(=O)n1-c1cc[nH]n1", "PI3Kγ (Homo sapiens)", "<", 5.00],
  ["Cc1n[nH]cc1-n1c([C@H](C)Nc2nc(N)nc(N)c2Cl)nc2c(Cl)ccc(Cl)c2c1=O", "PI3Kγ (Homo sapiens)", "<", 5.00],
  ["Nc1nc(N)c(Cl)c(N[C@H](c2nc3c(Cl)ccc(F)c3c(=O)n2-c2cc[nH]n2)C2CC2)n1", "PI3Kγ (Homo sapiens)", "<", 5.00],
  ["C[C@@H](Nc1nc(N)nc(N)c1C#N)c1nc2c(Cl)cc(F)cc2c(=O)n1-c1cc[nH]n1", "PI3Kγ (Homo sapiens)", "<", 5.00],
  ["C[C@H](Nc1ncnc2scnc12)c1nc2cccc(Cl)c2c(=O)n1-c1ccc[nH]1", "PI3Kγ (Homo sapiens)", "=", 7.14],
  ["C[C@H](Nc1nc(N)nc(N)c1Cl)c1nc2c(Cl)cccc2c(=O)n1-c1cc[nH]n1", "PI3Kγ (Homo sapiens)", "<", 5.00],
  ["C[C@H](Nc1nc(N)nc(C(F)F)c1C#N)c1nc2cccc(Cl)c2c(=O)n1-c1cc[nH]n1", "PI3Kγ (Homo sapiens)", "=", 6.17],
  ["C[C@H](Nc1nc(N)nc(N)c1Cl)c1nc2c(C(F)F)cccc2c(=O)n1-c1cc[nH]n1", "PI3Kγ (Homo sapiens)", "<", 5.00],
  ["C[C@H](Nc1nc(N)nc(N)c1C#N)c1nc2c(Cl)cc(F)cc2c(=O)n1-c1cn[nH]c1", "PI3Kγ (Homo sapiens)", "=", 7.08],
  ["C[C@H](Nc1nc(N)nc(N)c1C#N)c1nc2ccc(Cl)c(C(F)F)c2c(=O)n1-c1cc[nH]n1", "PI3Kγ (Homo sapiens)", "=", 5.74],
  ["C[C@H](Nc1nc(N)nc(N)c1C#N)c1nc2c(Cl)ccc(Cl)c2c(=O)n1-c1c[nH]cn1", "PI3Kγ (Homo sapiens)", "=", 6.64],
  ["C[C@H](Nc1nc(N)nc(N)c1C#N)c1nc2c(C#N)cc(F)cc2c(=O)n1-c1cc[nH]n1", "PI3Kγ (Homo sapiens)", "=", 5.57],
  ["CCC[C@H](Nc1nc(N)nc(N)c1C#N)c1nc2c(Cl)ccc(Cl)c2c(=O)n1-c1cc[nH]n1", "PI3Kγ (Homo sapiens)", "=", 5.85],
  ["Cc1n[nH]cc1-n1c([C@H](C)Nc2nc(N)nc(N)c2C#N)nc2c(Cl)ccc(Cl)c2c1=O", "PI3Kγ (Homo sapiens)", "=", 6.38],
  ["C[C@H](Nc1nc(N)nc(N)c1C#N)c1nc2c(F)c(F)ccc2c(=O)n1-c1cc[nH]n1", "PI3Kγ (Homo sapiens)", "=", 5.21]
]}
